For each entry below, report its % of OTUB1 modified value.
# SYSTEM: Human OTUB1 wild-type (Homo sapiens, UniProt Q96FW1)
# Construct: His tag (N); made in house; host or cells: E. coli BL21-CodonPlus (DE3)-RIPIL
# Sequence (Q96FW1 whole entry): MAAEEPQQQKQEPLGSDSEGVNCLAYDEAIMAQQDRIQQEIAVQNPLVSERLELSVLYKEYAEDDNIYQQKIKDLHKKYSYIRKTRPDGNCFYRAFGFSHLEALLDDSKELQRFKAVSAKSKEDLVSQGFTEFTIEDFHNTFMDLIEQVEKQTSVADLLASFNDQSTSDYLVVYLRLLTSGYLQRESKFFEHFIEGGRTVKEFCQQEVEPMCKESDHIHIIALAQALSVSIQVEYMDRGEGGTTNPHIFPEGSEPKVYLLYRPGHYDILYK
# ASSAY PROTOCOL: Covalent modification of OTUB1 (adduct formation), mass spectrometry-based assay (OTUB1 covalent binders; selected CFTR or cGAS based bivalent compounds)
# Format: binding
# EXPERIMENTAL SETUP: covalent adduct formation with OTUB1 protein

Determine its reported % of OTUB1 modified: Cc1cnc(NC(=O)C2(C)CN(C(=O)/C=C/CN(C)C)C2)o1 [XS209-23]
10%

Determine its reported % of OTUB1 modified: CN1CC2CCC(C1=O)N2C(=O)CCl (centres unmarked) [XS197-29]
75%

Determine its reported % of OTUB1 modified: CC(C)c1ccc(N2CCN(C(=O)/C=C/CN(C)C)CC2=O)s1 [XS175-64]
95%

Determine its reported % of OTUB1 modified: Cc1ccc(N2CCN(C(=O)/C=C/CN(C)C)CC2=O)o1 [XS165-100]
25%

Determine its reported % of OTUB1 modified: C=CC(=O)N1CCN(c2ccc(C)s2)C(=O)C1 [XS154-91]
52%

Determine its reported % of OTUB1 modified: CN(C)C/C=C/C(=O)N1CCN(c2cc3c(s2)CCCC3)C(=O)C1 [XS175-186]
100%

Determine its reported % of OTUB1 modified: Cc1cnc(C(=O)N2CC3CC(C2)N3C(=O)/C=C/CN(C)C)o1 [XS209-92]
15%

Determine its reported % of OTUB1 modified: Cc1ccc(NC(=O)C2CN(C(=O)C#CCN(C)C)C2)s1 [XS224-110]
100%

Determine its reported % of OTUB1 modified: CC(=O)N1CCC2(CCC(C(=O)N3CC4CC(C3)N4C(=O)/C=C/CN(C)C)CC2)C1 (centres unmarked) [XS209-53]
40%

Determine its reported % of OTUB1 modified: Cc1cccc(N2CC3CCC(C2=O)N3C(=O)/C=C/CN(C)C)c1 (centres unmarked) [XS190-182]
90%

Determine its reported % of OTUB1 modified: CN(C)C/C=C/C(=O)N1CCN(c2cc3ccccc3[nH]2)C(=O)C1 [XS185-116]
55%

Determine its reported % of OTUB1 modified: Cc1cnc(C(=O)N2CC3CC(C2)N3C(=O)/C=C/CN(C)C)s1 [XS209-65]
80%

Determine its reported % of OTUB1 modified: Cc1ccc(C(=O)NCC2CCN2C(=O)/C=C/CN(C)C)s1 (centres unmarked) [XS190-127]
15%

Determine its reported % of OTUB1 modified: CN(C)C/C=C/C(=O)N1C2CCC1C(=O)N(C1CCC1)C2 (centres unmarked) [XS197-70]
75%

Determine its reported % of OTUB1 modified: CN(C)C(C)(C)C#CC(=O)N1CC(NC(=O)c2cc3c(s2)CCCC3)C1 [XS224-159]
92%

Determine its reported % of OTUB1 modified: CN(C)CC#CC(=O)N1CC(C(=O)Nc2csc3ccccc23)C1 [XS224-118]
10%

Determine its reported % of OTUB1 modified: Cc1ccc(C(=O)N2CC3(CCN(C(=O)/C=C/CN(C)C)CC3)C2)s1 [XS185-66]
20%

Determine its reported % of OTUB1 modified: CN(C)C/C=C/C(=O)N1CC(O)(C(=O)Nc2cc3c(s2)CCCC3)C1 [XS209-176]
55%

Determine its reported % of OTUB1 modified: Cc1ccc(N2CC3CCC(C2=O)N3C(=O)/C=C/CN(C)C)s1 (centres unmarked) [XS185-75]
98%

Determine its reported % of OTUB1 modified: CC(=O)NCc1ccc(C(=O)N2CC3CC(C2)N3C(=O)/C=C/CN(C)C)s1 [XS190-130]
53%

Determine its reported % of OTUB1 modified: Cc1ccc(C(=O)NC2CC(NC(=O)C#CCN(C)C)C2)s1 (centres unmarked) [XS224-148]
90%

Determine its reported % of OTUB1 modified: Cc1ccc(C(=O)N2CC3CC(C2)N3C(=O)/C=C/CN(C)C)s1 [XS185-72]
90%

Determine its reported % of OTUB1 modified: Cc1csc(N2CCN(C(=O)/C=C/CN(C)C)CC2=O)c1 [XS175-46]
90%

Determine its reported % of OTUB1 modified: Cc1cccc(N2CC3CCC(C2=O)N3C(=O)/C=C/CN(C)C)n1 (centres unmarked) [XS190-181]
30%

Determine its reported % of OTUB1 modified: CN(C)C/C=C/C(=O)N1C2CC1CN(C(=O)c1cc3ccccc3s1)C2 [XS190-46]
90%

Determine its reported % of OTUB1 modified: Cc1cc(C)c(N2CCN(C(=O)/C=C/CN(C)C)CC2=O)s1 [XS175-45]
45%

Determine its reported % of OTUB1 modified: CN(C)C(C)(C)C#CC(=O)N1CC(C(=O)Nc2cc3c(s2)CCCC3)C1 [XS224-109]
75%

Determine its reported % of OTUB1 modified: CN(C)C/C=C/C(=O)N1C2CC1CN(C(=O)c1csc3c1CCCC3)C2 [XS190-49]
70%

Determine its reported % of OTUB1 modified: CN(C)C/C=C/C(=O)N1C2CC1CN(C(=O)C1CN(C)C1)C2 [XS197-85]
45%

Determine its reported % of OTUB1 modified: CCc1ccc(N2CCN(C(=O)/C=C/CN(C)C)CC2=O)s1 [XS175-63]
75%

Determine its reported % of OTUB1 modified: CN(C)CC#CC(=O)N1CC(NC(=O)c2cc3ccccc3s2)C1 [XS224-155]
97%

Determine its reported % of OTUB1 modified: CN(C)C/C=C/C(=O)N1C2CCC1C(=O)N(C)C2 (centres unmarked) [XS197-4]
75%

Determine its reported % of OTUB1 modified: CN(C)C/C=C/C(=O)N1C2CC1CN(C(=O)c1ccc(N3CCN(C)CC3)s1)C2 [XS209-185]
85%

Determine its reported % of OTUB1 modified: CC(=O)N1CCc2sc(C(=O)N3CC4CC(C3)N4C(=O)/C=C/CN(C)C)cc2C1 [XS190-69]
88%

Determine its reported % of OTUB1 modified: CC(C)C(=O)N1CC2CC(C1)N2C(=O)/C=C/CN(C)C [XS197-50]
8%

Determine its reported % of OTUB1 modified: Cc1cnc(NC(=O)C2(C)CN(C(=O)/C=C/CN(C)C)C2)s1 [XS209-38]
20%

Determine its reported % of OTUB1 modified: Cc1ccc(NC(=O)C2(O)CN(C(=O)/C=C/CN(C)C)C2)s1 [XS209-22]
47%

Determine its reported % of OTUB1 modified: Cc1ccc(C(=O)N2C[C@@H]3C[C@H]2CN3C(=O)/C=C/CN(C)C)s1 [XS190-80]
7%

---

# SYSTEM: Human OTUB1 wild-type (Homo sapiens, UniProt Q96FW1)
# Construct: His tag (N); made in house; host or cells: E. coli BL21-CodonPlus (DE3)-RIPIL
# ASSAY PROTOCOL: Covalent modification of OTUB1 (adduct formation), mass spectrometry-based assay (OTUB1 covalent binders; selected CFTR or cGAS based bivalent compounds)
# Assay type: binding
# EXPERIMENTAL SETUP: covalent adduct formation with OTUB1 protein
Measured % of OTUB1 modified determines class: group A (below 20%), group B (20% to below 60%), group C (60% or more)

Each compound maps to one class by % of OTUB1 modified. Which class for CN(C)C/C=C/C(=O)N1Cc2ccccc2C1 ?
group A

Each compound maps to one class by % of OTUB1 modified. Which class for C=CC(=O)N1CCN(c2ccc(C)o2)C(=O)C1 [EN523, reference compound] ?
group B

Each compound maps to one class by % of OTUB1 modified. Which class for CC(=O)N1CCC2(CC1)CC(C(=O)N1CC3CC(C1)N3C(=O)/C=C/CN(C)C)C2 ?
group B

Each compound maps to one class by % of OTUB1 modified. Which class for Cc1cnc(N2CCN(C(=O)CCl)CC2=O)s1 ?
group C

Each compound maps to one class by % of OTUB1 modified. Which class for Cc1ccc(CN2CC3CC(C2)N3C(=O)/C=C/CN(C)C)s1 ?
group A

Each compound maps to one class by % of OTUB1 modified. Which class for Cc1ccc(C(=O)N2C3CC2CN(C(=O)/C=C/CN(C)C)C3)s1 ?
group A

Each compound maps to one class by % of OTUB1 modified. Which class for CN(C)C/C=C/C(=O)N1C2CCC1C(=O)N(C1=CCCCC1)C2 (stereo not shown) ?
group C

Each compound maps to one class by % of OTUB1 modified. Which class for Cc1ccc(N2CCC3(CC2)CN(C(=O)/C=C/CN(C)C)C3)s1 ?
group B

Each compound maps to one class by % of OTUB1 modified. Which class for Cc1ccc(N2CC3CCC(C2=O)N3C(=O)C#CCN(C)C)s1 (stereo not shown) ?
group C
